Reference source: PubChem BioAssay

- experiment: inhibitors of Cryptococcus chitosan production, flow cytometry, Cibacron Brilliant Red staining (AID 1347148);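 also: compound exposure lasted three days at 37 degrees C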
- condition info: Cryptococcus neoformans chitosan; at 10 µM unless noted
Active and inactive are the calls of the source. No rule for the calls is given here.
# valid calls are active, inactive; nothing else

{"sample smiles": "CO/C1=C\\C(C)=C\\[C@@H](C)[C@@H](O)[C@@H](C)C/C(C)=C/C=C/[C@H](OC)[C@@H]([C@@H](C)[C@@H](O)[C@H](C)[C@@]2(O)C[C@@H](O)[C@H](C)[C@@H](C(C)C)O2)OC1=O", "qualitative label": "inactive"}
{"sample smiles": "N#C/C(=C\\c1ccc(O)c(O)c1)C(N)=S", "qualitative label": "inactive"}
{"sample smiles": "C[C@@H]1O[C@@H](O[C@H]2C[C@@H](O)[C@]3(CO)[C@H]4[C@H](O)C[C@]5(C)[C@@H](C6=CC(=O)OC6)CC[C@]5(O)[C@@H]4CC[C@]3(O)C2)[C@H](O)[C@H](O)[C@H]1O", "qualitative label": "inactive"}

Input line: Assay result, entry "CCCCCCCCCCCCCCCC(=O)OC[C@@H](COP(=O)([O-])OCC[N+](C)(C)C)OC(C)=O" — outcome?
Output line: inactive

Input line: Assay result, entry "CC1(C)[C@@H](O)C[C@H]2[C@](C)(O)[C@@H]3CCC4[C@@H](O)[C@@]3(C[C@@H](O)[C@@]21O)C[C@@]4(C)O" — outcome?
Output line: active

Input line: Assay result, entry "CCCCC/C=C\C/C=C\C/C=C\C/C=C\CCCC(=O)NCCO" — outcome?
Output line: inactive

Input line: Assay result, entry "c1ccc(C2CC2)c(OCC2=NCCN2)c1" — outcome?
Output line: inactive

Input line: Assay result, entry "CCCCC[C@@H](/C=C/C=C\C/C=C\C/C=C\CCCC(=O)O)OO" — outcome?
Output line: inactive
